PROTOCOL_TEXT: calcein-AM signal in unstimulated myeloma cells – cell-based, calcein-AM fluorescence, 48 h, PK04 Diversity Set, profiling panel (AID 1166);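 note: cells grown under basal conditions without added stimulus; test concentration not given here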
CONDITION: RPMI8226 myeloma viability, higher = more signal
I'd appreciate it if you could supply z-score values for the items below.
One number for each entry.

COMPOUND	RESULT_NUMBER
C=C[C@H](C)[C@H](OC(=O)Nc1ccc(SC)cc1)c1ccc(OCCO)cc1	-2.41
C=CC[C@]1(C(=O)N2CCCCC2)N=C(c2ccc(OCCCO)cc2)O[C@H]1c1ccccc1CN=[N+]=[N-]	-1.15
COc1ccc(C#Cc2ccc3c(c2)[C@]2(C(=O)N3)[C@H](c3ccc(OCCO)cc3)N3[C@H](c4ccccc4)[C@H](c4ccccc4)OC(=O)[C@H]3[C@@H]2C(=O)NC[C@H](O)c2ccccc2)cc1	-1.46
CCOC(=O)C1=CC[C@@H](c2ccccc2)N(S(=O)(=O)c2ccc(C)cc2)[C@H]1c1ccccc1	0.229
CC1CC/C=C\[C@H]2OC34C=CCN(C(C)C)C(=O)[C@H]3N(CCO)C(=O)[C@@H]4C2C(=O)O1 (stereo not given in full)	-1.11

Quick request: z-score for each listed item, please.
1. C=CCC(OC(C)=O)[C@@H]1[C@@H](N(Cc2cc3ccccc3o2)C(=O)Cc2ccc(F)cc2)c2cc(OCCCO)ccc2N1C(=O)Cc1ccc2ccccc2c1 (stereo not given in full)
2. CO[C@H]1O[C@H](CO)[C@@H](OC(=O)Nc2ccccc2)[C@H](OC(=O)c2cc3ccccc3[nH]2)[C@H]1OC(=O)c1cc2ccccc2[nH]1
3. [N-]=[N+]=Nc1ccccc1C[C@]1(C(=O)NCC(O)CO)COC(c2ccc(OCCCO)cc2)=N1 (stereo not given in full)
4. CCCN1C(=O)[C@@]2(Cc3ccccc31)N=C(c1ccc(OCCCO)cc1)O[C@H]2c1ccccc1
5. C=C(COC)/C(=C/C[C@H](OC(=O)c1ccncc1)c1ccccc1OCCO)c1cc(C(=O)OC)ccc1OC
6. [N-]=[N+]=Nc1ccccc1C[C@@]1(C(=O)N2CCOCC2)N=C(c2ccc(OCCCO)cc2)O[C@@H]1c1ccccc1
7. [N-]=[N+]=Nc1ccccc1C[C@]1(C(=O)O)COC(c2ccc(OCCCO)cc2)=N1

Response:
-0.759
-0.939
-0.0237
-4.16
-1.58
-2.57
-0.747
